Assay: Solubility of the crystalline forms in methylcyclohexane (Mullin method)
Type: physicochemical
Conditions: methylcyclohexane, 50 °C, organic solvent or mixture, thermodynamic from solid, in methylcyclohexane, 50.00 °C, at equilibrium; read-out: Solubility Concentration
metric: solubility (mg/mL)
Could you give me the number in mg/mL? Just the number is fine.

solubility lookup needed for Cc1c(C(=O)NN2CCCCC2)nn(-c2ccc(Cl)cc2Cl)c1-c1ccc(Cl)cc1 [Form I, reference compound] , thanks.
20.4

----------
Assay: Solubility of the crystalline forms in methylcyclohexane (Mullin method)
Format: physicochemical
Conditions: methylcyclohexane, 70 °C, organic solvent or mixture, thermodynamic from solid, in methylcyclohexane, 70.00 °C, at equilibrium; read-out: Solubility Concentration
metric: solubility (mg/mL)
Could you give me the number in mg/mL? Just the number is fine.

solubility lookup needed for Cc1c(C(=O)NN2CCCCC2)nn(-c2ccc(Cl)cc2Cl)c1-c1ccc(Cl)cc1 [Form I, reference compound] , thanks.
52.4

Just for reference, patent US20100190827A1 is where these values come from.
